# Tested system: human serum albumin (Homo sapiens, UniProt P02768)
# Sequence (P02768 25-609): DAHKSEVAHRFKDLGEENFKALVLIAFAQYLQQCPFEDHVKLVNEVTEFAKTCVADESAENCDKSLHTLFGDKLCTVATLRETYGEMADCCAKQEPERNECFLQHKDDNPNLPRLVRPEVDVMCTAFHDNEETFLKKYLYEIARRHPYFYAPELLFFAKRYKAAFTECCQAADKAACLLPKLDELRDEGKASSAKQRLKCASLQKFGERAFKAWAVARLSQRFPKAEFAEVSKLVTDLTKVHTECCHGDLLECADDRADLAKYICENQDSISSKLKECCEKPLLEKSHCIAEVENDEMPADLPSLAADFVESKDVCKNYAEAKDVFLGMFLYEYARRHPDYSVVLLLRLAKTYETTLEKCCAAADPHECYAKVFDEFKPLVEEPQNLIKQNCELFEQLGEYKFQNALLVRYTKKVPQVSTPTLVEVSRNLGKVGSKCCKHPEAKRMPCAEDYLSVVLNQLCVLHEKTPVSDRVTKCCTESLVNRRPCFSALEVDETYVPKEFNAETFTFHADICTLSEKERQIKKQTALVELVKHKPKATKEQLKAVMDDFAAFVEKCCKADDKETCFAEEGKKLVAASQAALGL
# Measurement protocol: X-ray crystallography of human serum albumin/drug complexes: binding location
# Design: Domain I (1 through 192); Domain II (193 through 395);Domain III (396 THROUGH 585)
# Condition context: Table I, Phase I; subdomain of HSA where the drug is found in the crystal complex
Readout kind: Albumin Binding Location

CC1(C)S[C@@H]2[C@H](NC(=O)COc3ccccc3)C(=O)N2[C@H]1C(=O)O [Penicillin V] = IIA
CCCCC(=O)O[C@H]1CC[C@H]2[C@@H]3CCc4cc(O)ccc4[C@H]3CC[C@]12C [Estradiol Valerate] = IIA
